- Tested on: P. falciparum 3D7 parasites
- assay_text: P. falciparum growth inhibition assay, 2-cycle (120 h treatment), delayed-death screen and dose-response
- Format: cell-based, Plasmodium falciparum
- condition_parameters: P. falciparum, 120 h, parasite screen 2 μg/mL, % growth, replicate 2
I'd be grateful if you could share measured Pf_120h_%Growth_Rep2 for these entries.
Numbers only, in %.

These solved cases illustrate the format of a correct answer.
- CCCCC/C=C/C=C\C=C/[C@H](O)[C@H](C)[C@H](C/C=C/[C@@H]1OC(=O)C=C[C@@H]1O)OS(=O)(=O)[O-].[Na+]: 130.19
- O=c1c2cccn2c(=O)c2cccn12: 138.60
- CC[C@H]1CCC[C@H](O)[C@@H](C)C(=O)C2=C[C@@H]3[C@@H](C=C(C)[C@@H]4C[C@@H](O)C[C@@H]34)[C@@H]2CC(=O)O1 [Spinosyn D aglycone]: 90.76
- COc1cc(C[C@H]2C(=O)OC[C@@H]2Cc2ccc3c(c2)OCO3)ccc1O [Pluviatolide]: 133.22
- CC[C@H]1CCC[C@H](O)[C@@H](C)C(=O)C2=C[C@@H]3[C@@H](C=C[C@@H]4C[C@@H](O)C[C@@H]34)[C@@H]2CC(=O)O1 [Spinosyn A aglycone]: 13.75

// batch mode: one Pf_120h_%Growth_Rep2 value per listed entry
1. Cc1cc(O)c2c(c1)C(=O)C13C(=C2O)C(=O)C2C(O)C1C1C(O)C3C(=O)C3=C(O)c4c(O)cc(C)cc4C(=O)C321 (stereo not shown) [Rugulosin + form]
2. C[C@H]1NC(=O)[C@@H]2CCCCN2C(=O)CN(C)C(=O)CNC(=O)[C@@H]2CCCCN2C(=O)[C@H](NC(=O)c2nc3ccccc3cc2O)[C@@H](C)NC(=O)[C@@H]2CCCCN2C(=O)CN(C)C(=O)CNC(=O)[C@@H]2CCCCN2C(=O)[C@@H]1NC(=O)c1nc2ccccc2cc1O
3. C[C@@]12CCC[C@@]34CCC[C@@H](C=C[C@H]1CC3)N42
4. CCCCCCCCCCCC[C@@H](C(=O)O)[C@H](C)C(=O)O
5. C/C=C/c1cc2c(c(=O)o1)[C@H](O)[C@@H](O)[C@H](C)O2
6. Cc1cc2nc3c(=O)[nH]c(=O)nc-3n(C[C@H](O)[C@H](O)[C@H](O)CO)c2cc1N(C)C

Data returned:
[131.94, 8.74, 98.35, 129.33, 123.93, 7.07]
